molecular target: Induced myeloid leukemia cell differentiation protein Mcl-1 (Homo sapiens); test: Mcl-1/Noxa binding inhibitor potency, dose response, biochemical, TR-FRET (AID 1417); conditions: Mcl-1/Noxa peptide interaction, cell-free TR-FRET (terbium/rhodamine), 2 h; measured here: absolute IC50
readout-kind: IC50

What does the data say about its IC50? Entry: "COc1cc(/C=C2\SC(=O)N(Cc3ccc(F)cc3)C2=O)cc([N+](=O)[O-])c1O" 7.01 µM

What does the data say about its IC50? Entry: O=C(O)C1Nc2c(C(=O)N3CCOCC3)cccc2C2C=CCC12 (stereo not drawn) > 54 µM

What does the data say about its IC50? Entry: "COc1ccc(N2CCN(C(=O)c3ccc(CSc4ccccc4)cc3)CC2)cc1" > 54 µM

What does the data say about its IC50? Entry: "CCCOc1ccc(Cc2nn3c(=O)/c(=C/c4ccco4)sc3nc2=O)cc1" > 54 µM

What does the data say about its IC50? Entry: "CC(=O)c1cc(O)c2ccccc2c1O" < 0.4 µM

What does the data say about its IC50? Entry: C/C=C\C=C/C(=O)Nc1cccc(C2=NOC3(C2)C[C@@H](C(N)=O)N(C(=O)c2ccccc2)C3)c1 (stereo partly drawn) 50.9 µM

What does the data say about its IC50? Entry: "Cc1oc(-c2ccc(Cl)cc2)cc1-c1nn2c(-c3ccoc3C)nnc2s1" > 54 µM

What does the data say about its IC50? Entry: "CCS(=O)(=O)C1=NN2C(=N)/C(=C\c3ccc(SCc4ccco4)o3)C(=O)N=C2S1" 1.46 µM

====

biological target: Induced myeloid leukemia cell differentiation protein Mcl-1 (Homo sapiens) (UniProt Q07820); assay: Mcl-1/Noxa binding inhibitor potency, dose response, biochemical, TR-FRET (AID 1417); conditions: Mcl-1/Noxa peptide interaction, cell-free TR-FRET (terbium/rhodamine), 2 h; measured here: absolute IC50
Sequence (Q07820 whole entry, looked up): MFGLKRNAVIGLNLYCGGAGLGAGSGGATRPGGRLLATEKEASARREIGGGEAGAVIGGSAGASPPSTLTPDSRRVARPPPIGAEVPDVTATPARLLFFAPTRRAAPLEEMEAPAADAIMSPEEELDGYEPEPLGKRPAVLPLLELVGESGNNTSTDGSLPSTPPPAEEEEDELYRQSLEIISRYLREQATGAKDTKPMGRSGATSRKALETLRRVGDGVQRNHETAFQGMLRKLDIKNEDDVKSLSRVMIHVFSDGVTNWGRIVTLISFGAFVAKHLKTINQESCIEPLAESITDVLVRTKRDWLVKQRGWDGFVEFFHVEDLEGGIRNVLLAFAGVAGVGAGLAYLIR
readout-kind: IC50 (µM)
Write the value in µM as a bare number.

What does the data say about its IC50? Entry: "Cc1cccc(N=C2NC(=O)/C(=C/C=C/c3ccco3)S2)c1" 13.5

What does the data say about its IC50? Entry: "CCOc1ccc(NC(=O)N(CCN2CCOCC2)Cc2ccc3c(c2)CCCN3CC)cc1" 0.953

What does the data say about its IC50? Entry: "Oc1ccc(N2CCN(c3ncnc4sc5c(c34)CCC5)CC2)cc1" 6.63

What does the data say about its IC50? Entry: "Cc1ccc(NC(=O)CSc2nnc(-c3ccco3)c(-c3ccco3)n2)cc1" 3.29

What does the data say about its IC50? Entry: "CCOC(=O)c1c(CSc2ccc(C)cc2)n(C)c2cc(Br)c(O)c(CN(C)C)c12" 3.33

What does the data say about its IC50? Entry: "O=C(Nc1ccc(Cl)cc1)Nc1nnc(/C=C/c2ccccc2)s1" 4.06

What does the data say about its IC50? Entry: "CNc1sc(C(=O)c2ccc(F)cc2)c(N)c1-c1nc2ccccc2s1" 2.09

What does the data say about its IC50? Entry: "CCN(CC)S(=O)(=O)c1cc(NC(=O)Cn2ncc(Cl)c(Cl)c2=O)ccc1C" 3.26

What does the data say about its IC50? Entry: "COc1ccccc1CNC(=O)COC(=O)c1cc(-c2ccco2)nc2ccccc12" 1.8

What does the data say about its IC50? Entry: "Cc1cccc(C(=O)N=c2c(C#N)cc3c(=O)n4cccc(C)c4nc3n2Cc2ccco2)c1" 4.26

What does the data say about its IC50? Entry: "O=C(O)c1cccc(N/N=C/C2=C(Cl)c3cc(Cl)ccc3SC2)c1" 4.33

What does the data say about its IC50? Entry: "COc1cc(/C=N/NC(=O)C2c3ccccc3Oc3ccccc32)ccc1O" 6.68

What does the data say about its IC50? Entry: "O=C1Oc2ccccc2C(=O)/C1=C/c1ccccc1O" 3.62

What does the data say about its IC50? Entry: Nc1c(C(=O)NCC2CCCO2)sc2nc3c(c(-c4ccco4)c12)CC/C3=C\c1ccco1 (stereo unspecified) 0.8

====

Field: pIC50. Provide a value for each of the compounds that follow.
biological target: Induced myeloid leukemia cell differentiation protein Mcl-1 (Homo sapiens) (UniProt Q07820); experiment: Mcl-1/Noxa binding inhibitor potency, dose response, biochemical, TR-FRET (AID 1417); conditions: Mcl-1/Noxa peptide interaction, cell-free TR-FRET (terbium/rhodamine), 2 h; measured here: absolute IC50
pIC50: −log10 of the molar value.

What does the data say about its pIC50? Entry: C=C(C)C(=O)Nc1cccc(C2=NOC3(C2)C[C@@H](C(N)=O)N(C(=O)C(=C)C)C3)c1 (stereo partly drawn) < 4.27

What does the data say about its pIC50? Entry: "Nc1ccc(C2=Nc3cccc4cccc(c34)N2)cc1" > 6.40

What does the data say about its pIC50? Entry: "CCOC(=O)c1c(-c2ccc(C)cc2)csc1NC(=O)/C(C#N)=C/c1ccc(O)c(OC)c1" > 6.40

====

biological target: Induced myeloid leukemia cell differentiation protein Mcl-1 (Homo sapiens); assay: Mcl-1/Noxa binding inhibitor potency, dose response, biochemical, TR-FRET (AID 1417); details: Mcl-1/Noxa peptide interaction, cell-free TR-FRET (terbium/rhodamine), 2 h; measured here: absolute IC50
readout-kind: IC50

What does the data say about its IC50? Entry: "COc1cc2c(ccc3cc(OC)c(OC)c(O)c32)cc1O" < 400 nM

What does the data say about its IC50? Entry: "CC(=O)c1sc2nc(-c3cccs3)ccc2c1N" > 54000 nM

What does the data say about its IC50? Entry: "CC(=O)Nc1ccc(C(=O)Nc2cccc(-c3cnc4ccccc4n3)c2)cc1" > 54000 nM

What does the data say about its IC50? Entry: "CN(C)c1ccc(NC(=O)c2ccc(COc3cccc(Cl)c3)o2)cc1" < 400 nM

What does the data say about its IC50? Entry: "Cc1cc(NC(=O)CSc2nc(-c3ccc(F)cc3)cs2)no1" > 54000 nM

What does the data say about its IC50? Entry: "O=C(O)c1ccccc1NS(=O)(=O)c1ccc(NNC(=S)Nc2ccc(OC(F)F)cc2)c([N+](=O)[O-])c1" < 400 nM

What does the data say about its IC50? Entry: "CN(C)c1ccc(NC(=O)Nc2cccc(Cl)c2)cc1" < 400 nM

What does the data say about its IC50? Entry: "COc1ccc(/C=C2\SC(=O)N(CCC(=O)Nc3ccc(S(=O)(=O)Nc4nccs4)cc3)C2=O)cc1" < 400 nM

What does the data say about its IC50? Entry: Cc1ccc(C2C(/C=C3/SC(=S)NC3=O)=C(c3cccs3)Oc3ccccc32)cc1 (stereo unspecified) < 400 nM

What does the data say about its IC50? Entry: "O=C(O[C@@H]1OC2COC(=O)c3cc(O)c(O)c(O)c3-c3c(cc(O)c(O)c3O)C(=O)O[C@@H]([C@H]1O)[C@@H]2O)c1cc(O)c(O)c(O)c1" < 400 nM

What does the data say about its IC50? Entry: "N[C@@H](Cc1cc(I)c(Oc2ccc(O)c(I)c2)c(I)c1)C(=O)O" < 400 nM

What does the data say about its IC50? Entry: COc1ccc(N2CCC(CNC(=O)Nc3cccc(OC)c3)C2)cc1 (stereo unspecified) > 54000 nM

What does the data say about its IC50? Entry: "CCCCn1c(-c2ccc(Cl)cc2)nc2c(=O)n(C)c(=O)[nH]c21" > 54000 nM

What does the data say about its IC50? Entry: "CCN1C(=O)/C(=C\c2ccc(-c3ccc([N+](=O)[O-])cc3OC)o2)SC1=Nc1cccc(C(=O)O)c1" < 400 nM

What does the data say about its IC50? Entry: "COc1ccc2[nH]c3c(=O)n(Cc4ccc(C(=O)N5CCCC5)cc4)c(=S)[nH]c3c2c1" > 54000 nM

What does the data say about its IC50? Entry: "CCN(c1ccc(NC(=O)COC(=O)c2cc3ccccc3oc2=O)cc1)C(C)C" > 54000 nM

====

molecular target: Induced myeloid leukemia cell differentiation protein Mcl-1 (Homo sapiens) (UniProt Q07820); assay: Mcl-1/Noxa binding inhibitor potency, dose response, biochemical, TR-FRET (AID 1417); conditions: Mcl-1/Noxa peptide interaction, cell-free TR-FRET (terbium/rhodamine), 2 h; measured here: absolute IC50
readout-kind: IC50

What does the data say about its IC50? Entry: "COc1cccc2c(=O)c3cccc(N)c3[nH]c12" > 54 µM

What does the data say about its IC50? Entry: "Cc1cc(SCC(=O)N/N=C/c2ccc(O)c(O)c2O)c(C)cc1Br" < 0.4 µM

What does the data say about its IC50? Entry: "O=C(N/N=C/c1cccc(F)c1)c1cc(-c2ccco2)nc2ccccc12" < 0.4 µM

What does the data say about its IC50? Entry: "O=C(O)CCCN1C(=O)/C(=C/C=C/c2ccco2)SC1=S" > 54 µM

What does the data say about its IC50? Entry: "COC(=O)c1cc(O)cc(OC)c1Oc1cc(C)cc(O)c1C(=O)O" > 54 µM

What does the data say about its IC50? Entry: O=C(NCC1CCCO1)c1ccc(Cn2c(=S)[nH]c3ccccc3c2=O)cc1 (stereo not drawn) > 54 µM

What does the data say about its IC50? Entry: CCOC(=O)c1ccc2c(c1)C1C=CCC1C(C(=O)O)N2 (stereo not drawn) < 0.4 µM

What does the data say about its IC50? Entry: "O=C(C1=C[C@@H](c2ccc(C(F)(F)F)cc2)C[C@@H](OCc2ccc(CO)cc2)O1)N1CCN(Cc2ccccc2)CC1" > 54 µM

What does the data say about its IC50? Entry: "O=C1N=c2ccc(Br)cc2=C1c1sc(=S)n(NS(=O)(=O)c2ccccc2)c1O" > 54 µM

What does the data say about its IC50? Entry: "C=CCN=c1scc(-c2ccco2)n1/N=C/c1ccc(O)c(O)c1O" > 54 µM

What does the data say about its IC50? Entry: "N#Cc1cc(-c2ccccc2)nn1-c1ccccc1" < 0.4 µM

What does the data say about its IC50? Entry: "COc1cc(/C=C2\SC(=O)N(c3ccc(Cl)cc3)C2=O)cc([N+](=O)[O-])c1O" < 0.4 µM

What does the data say about its IC50? Entry: "O=[N+]([O-])c1ccccc1/C=C/C=N/n1c(-c2ccccc2)n[nH]c1=S" > 54 µM

What does the data say about its IC50? Entry: "Cn1c(=O)c(C(=O)COC(=O)c2cc(-c3ccco3)nc3ccccc23)c(N)n(Cc2ccccc2)c1=O" < 0.4 µM

What does the data say about its IC50? Entry: "CSc1nc(NCCOCCO)c2sc3nc(-c4ccco4)c4c(c3c2n1)CCC4" < 0.4 µM

What does the data say about its IC50? Entry: "CCN(CC)c1ccc(NC(=O)/C=C\c2ccccc2Cl)cc1" < 0.4 µM

What does the data say about its IC50? Entry: "Oc1ccc(/C=N/Nc2nc(-c3cccnc3)nc3ccccc23)c(O)c1" > 54 µM

What does the data say about its IC50? Entry: COc1ccc(N2CCC(CNC(=O)Nc3ccc(C)c(C)c3)C2)cc1 (stereo not drawn) > 54 µM
